Target: NAD-dependent protein deacetylase sirtuin-3, mitochondrial (Homo sapiens)
Sequence (whole entry): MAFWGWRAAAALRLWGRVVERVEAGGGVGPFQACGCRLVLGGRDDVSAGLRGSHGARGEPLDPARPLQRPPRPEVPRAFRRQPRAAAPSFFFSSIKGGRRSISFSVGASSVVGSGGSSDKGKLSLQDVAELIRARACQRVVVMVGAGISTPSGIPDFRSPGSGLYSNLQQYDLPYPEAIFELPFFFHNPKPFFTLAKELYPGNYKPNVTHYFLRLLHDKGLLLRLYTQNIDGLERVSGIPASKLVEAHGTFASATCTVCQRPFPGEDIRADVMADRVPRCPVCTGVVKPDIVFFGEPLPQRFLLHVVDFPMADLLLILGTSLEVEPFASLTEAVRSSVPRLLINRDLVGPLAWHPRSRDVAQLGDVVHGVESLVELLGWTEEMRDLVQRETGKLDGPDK
Assay: Inhibition of human recombinant SIRT3 at 50 uM using AMC-p53 ([…] residues) as substrate incubated for 45 mins followed by NAD+ addition measured after 30 mins by fluorescence assay relative to control
Label MET for high-side inhibition (at or above 30%) and NOT MET for low-side inhibition (below it).

**Query** Say whether CCCCCCCCn1c(-c2ccc(-c3cccc(-c4ccc(F)cn4)c3)cc2)nc2cc(C(=O)OCC)ccc21 shows inhibition of 30% or more.
**Result** NOT MET

**Query** Now the same for CCCCCCCCn1c(-c2ccc(-c3ccc(OC(F)(F)F)cc3)cc2)nc2cc(C(=O)OCC)ccc21
**Result** NOT MET

**Query** Now the same for CCCCCCCCn1c(-c2ccc(-c3ccc(Cl)cc3)cc2)nc2cc(C(=O)OCC)ccc21
**Result** NOT MET

**Query** Now the same for CCOC(=O)c1ccc(N2CCN(CCn3c(-c4ccc(-c5cncc(-c6ccc(F)cc6)c5)cc4)nc4cc(C(=O)OCC)ccc43)CC2)c(N)c1
**Result** NOT MET

**Query** Now the same for CCOC(=O)c1ccc(N2CCN(CCn3c(-c4ccc(-c5ccc(Cl)cc5)cc4)nc4cc(C(=O)OCC)ccc43)CC2)c(N)c1
**Result** MET

**Query** Now the same for CCOC(=O)c1ccc(N2CCN(CCn3c(-c4ccc(-c5ccc(OC(F)(F)F)cc5)cc4)nc4cc(C(=O)OCC)ccc43)CC2)c(N)c1
**Result** NOT MET

**Query** Now the same for CCCCCCCCn1c(-c2ccc(-c3ccc(O)cc3O)cc2)nc2cc(C(=O)OCC)ccc21
**Result** MET

**Query** Now the same for CCCCCCCCn1c(-c2ccc(-c3ccc(C)cc3)cc2)nc2cc(C(=O)OCC)ccc21
**Result** NOT MET

**Query** Now the same for CCCCCCCCn1c(-c2ccc(-c3ccccc3)cc2)nc2cc(C(=O)OCC)ccc21
**Result** NOT MET

**Query** Now the same for CCOC(=O)c1ccc(N2CCN(CCn3c(-c4ccc(-c5ccccc5)cc4)nc4cc(C(=O)OCC)ccc43)CC2)c(N)c1
**Result** NOT MET

====

Target: NAD-dependent protein deacetylase sirtuin-1 (Homo sapiens)
Sequence (whole entry): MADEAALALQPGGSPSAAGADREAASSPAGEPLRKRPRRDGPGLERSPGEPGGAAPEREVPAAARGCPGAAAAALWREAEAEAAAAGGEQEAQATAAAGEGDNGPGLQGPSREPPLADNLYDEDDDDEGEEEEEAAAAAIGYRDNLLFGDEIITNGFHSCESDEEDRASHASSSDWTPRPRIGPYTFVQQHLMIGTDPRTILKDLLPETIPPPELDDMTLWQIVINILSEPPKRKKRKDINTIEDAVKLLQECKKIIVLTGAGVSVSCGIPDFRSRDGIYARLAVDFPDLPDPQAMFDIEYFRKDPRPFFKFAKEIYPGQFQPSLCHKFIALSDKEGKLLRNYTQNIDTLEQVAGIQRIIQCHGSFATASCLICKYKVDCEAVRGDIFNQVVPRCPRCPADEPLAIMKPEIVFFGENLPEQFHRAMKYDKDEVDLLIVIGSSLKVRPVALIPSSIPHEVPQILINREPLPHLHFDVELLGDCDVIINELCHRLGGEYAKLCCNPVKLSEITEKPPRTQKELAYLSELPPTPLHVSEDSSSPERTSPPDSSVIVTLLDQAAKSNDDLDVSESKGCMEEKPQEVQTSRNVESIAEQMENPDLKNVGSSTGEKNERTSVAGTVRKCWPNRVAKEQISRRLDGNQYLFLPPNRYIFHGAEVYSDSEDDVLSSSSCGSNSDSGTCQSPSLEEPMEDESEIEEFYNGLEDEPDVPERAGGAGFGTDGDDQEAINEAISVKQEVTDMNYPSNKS
Assay: Inhibition of human recombinant SIRT1 at 50 uM using AMC-p53 (379 to 382 residues) as substrate incubated for 45 mins followed by NAD+ addition measured after 30 mins by fluorescence assay relative to control
value.kind: inhibition (%)
Please reply with the bare figure in % and do not write the unit itself.

**Query** I would be grateful if you could share the reported inhibition for CCOC(=O)c1ccc(N2CCN(CCn3c(-c4ccc(-c5ccccc5)cc4)nc4cc(C(=O)OCC)ccc43)CC2)c(N)c1 .
**Result** 31.1

**Query** Now the same for CCCCCCCCn1c(-c2ccc(-c3ccc(O)cc3O)cc2)nc2cc(C(=O)OCC)ccc21
**Result** 29

**Query** Now the same for CCCCCCCCn1c(-c2ccc(-c3ccc(OC(F)(F)F)cc3)cc2)nc2cc(C(=O)OCC)ccc21
**Result** 25
